Kindly state koff for each of the entries shown.
Molecular target: T1, RCD1-RST(499-572) (Arabidopsis thaliana, UniProt Q8RY59 499-572)
T1 construct: also called AtRCD1-RST; αα-hub RCD1-RST; source: E. coli BL21(DE3), purified (Source 15S cation exchange, Superdex 75 SEC)
T1 sequence (looked up): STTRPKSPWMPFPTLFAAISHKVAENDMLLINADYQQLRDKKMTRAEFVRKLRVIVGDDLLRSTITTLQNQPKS
Experiment: stopped-flow fluorescence spectroscopy; 0.1 µM FITC-DREB2A peptide mixed with 1-6 µM RCD1-RST(499-572) (kon); preformed complex 1:0.1 µM displaced with 5-60 µM unlabelled DREB2A(244-272) (koff); Kd from the rate constants; 10 °C, 50 mM HEPES pH 7.4, 100 mM NaCl
Conditions: both partners purified
Primed or numbered codes have the meaning given here. FITC′ = fluorescein isothiocyanate
Hi! Could you send only the number? It should be in s⁻¹, unit omitted.

Need koff, item {FITC′}-NDVDQSHLDSSDMFDVDELLRLLNGDD-NH2 (peptide, UniProt O82132 246-272, looked up, also: acetylation stated, site not given here, also called fluorescently labeled DREB2A(244-272)-D267L; DREB2A-D267L; source: synthetic peptide, bought: TAG Copenhagen A/S (>98% purity)) [FITC-DREB2A(246-272) D267L] 0.03

Need koff, item {FITC′}-NDVDQSHLDSSDMFDVDELLRALNGDD-NH2 (peptide, UniProt O82132 246-272, looked up, also: acetylation stated, site not given here, also called DREB2A-D267A; DREB2A(244-272) variant D267A; source: synthetic peptide, bought: TAG Copenhagen A/S (>98% purity)) [FITC-DREB2A(246-272) D267A] 0.07

Need koff, item {FITC′}-NDVDQSHLDSSDMFDVDELLGDLNGDD-NH2 (peptide, UniProt O82132 246-272, looked up, also: acetylation stated, site not given here, also called fluorescently labeled DREB2A(244-272)-R266G; DREB2A-R266G; source: synthetic peptide, bought: TAG Copenhagen A/S (>98% purity)) [FITC-DREB2A(246-272) R266G] 0.7

Need koff, item {FITC′}-NDVDQSHLDSSDMFDVDELLADLNGDD-NH2 (peptide, UniProt O82132 246-272, looked up, also: acetylation stated, site not given here, also called DREB2A-R266A; DREB2A(244-272) variant R266A; source: synthetic peptide, bought: TAG Copenhagen A/S (>98% purity)) [FITC-DREB2A(246-272) R266A] 0.383
